Reported pEC50 values follow for various compounds
# TARGET_DESC: human mAChR M1 (Homo sapiens, UniProt P11229)
# Sequence (P11229 1-460): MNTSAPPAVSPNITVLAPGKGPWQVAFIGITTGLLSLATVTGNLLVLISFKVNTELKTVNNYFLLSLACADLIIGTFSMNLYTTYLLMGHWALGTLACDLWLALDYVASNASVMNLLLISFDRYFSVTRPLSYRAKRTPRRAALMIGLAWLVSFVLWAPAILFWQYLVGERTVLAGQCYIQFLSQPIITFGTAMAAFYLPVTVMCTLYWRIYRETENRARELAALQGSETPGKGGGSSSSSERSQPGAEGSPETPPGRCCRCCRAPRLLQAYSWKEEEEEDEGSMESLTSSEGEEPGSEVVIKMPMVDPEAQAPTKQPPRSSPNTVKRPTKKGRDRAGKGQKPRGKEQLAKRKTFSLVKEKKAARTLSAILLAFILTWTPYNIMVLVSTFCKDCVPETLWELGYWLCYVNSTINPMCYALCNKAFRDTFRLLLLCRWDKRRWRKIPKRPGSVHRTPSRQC
# EXPERIMENTAL_DETAILS: mAChR M1 cell-based functional assay (calcium mobilization), PAM mode: increase in the EC20 acetylcholine response
pEC50: −log10 of the molar value.
PARAMETER_MEASURED: pEC50

COMPOUND: [2H]C1([2H])c2ncccc2C(=O)N1Cc1c(F)cc(-c2ccc(OC3CN(C4CCCCC4)C3)c3nn(C)cc23)cc1F
RECORDED_MEASUREMENT: 6.20
--
COMPOUND: [2H]C1([2H])c2ncccc2C(=O)N1Cc1ccc(-c2cccc3nn(C)cc23)cc1C
RECORDED_MEASUREMENT: 6.20
--
COMPOUND: [2H]C1([2H])c2ncccc2C(=O)N1Cc1c(F)cc(-c2cccc3c2cnn3C(F)F)cc1F [Compound 60]
RECORDED_MEASUREMENT: 6.16
--
COMPOUND: [2H]C1([2H])c2ncccc2C(=O)N1Cc1c(F)cc(-c2ccnc3nn(C)cc23)cc1Cl
RECORDED_MEASUREMENT: 6.19
--
COMPOUND: [2H]C1([2H])c2ncccc2C(=O)N1Cc1ccc(-c2ccc(OCCOC(C)C)c3nn(C)cc23)cc1F
RECORDED_MEASUREMENT: 5.87
--
COMPOUND: [2H]C1([2H])c2ncccc2C(=O)N1Cc1c(Cl)cc(-c2cccc3nn(C([2H])([2H])[2H])cc23)cc1C1CC1
RECORDED_MEASUREMENT: 6.33
--
COMPOUND: [2H]C1([2H])c2ncccc2C(=O)N1Cc1c(F)cc(-c2ccc(OC(C)COC)c3nn(C)cc23)cc1F (stereo not shown)
RECORDED_MEASUREMENT: 6.31

---

EC50: recorded values
# TARGET_DESC: human mAChR M1 (Homo sapiens)
# EXPERIMENTAL_DETAILS: mAChR M1 cell-based functional assay (calcium mobilization), agonist mode: compound alone, Emax relative to acetylcholine maximum
# DETAILS: human mAChR M1
PARAMETER_MEASURED: EC50 (µM)

MOLECULE: [2H]C1([2H])c2ncccc2C(=O)N1Cc1c(C)cc(-c2ccc(C)c3nn(C([2H])([2H])[2H])cc23)cc1F
OPERATOR_SYMBOL: ≥
RECORDED_MEASUREMENT: 10
//
MOLECULE: [2H]C1([2H])c2ncccc2C(=O)N1Cc1c(F)cc(-c2ccnc3nn(C)cc23)cc1OCC(C)C
OPERATOR_SYMBOL: =
RECORDED_MEASUREMENT: 2.86
//
MOLECULE: [2H]C1([2H])c2ncccc2C(=O)N1Cc1c(F)cc(-c2cccc3nn(C)cc23)cc1C1CC1
OPERATOR_SYMBOL: =
RECORDED_MEASUREMENT: 5.96
//
MOLECULE: [2H]C1([2H])c2ncccc2C(=O)N1Cc1ccc(-c2ccc(OCCOC3CC3)c3nn(C)cc23)cc1F
OPERATOR_SYMBOL: ≥
RECORDED_MEASUREMENT: 10
//
MOLECULE: [2H]C([2H])([2H])Oc1cnc2c(c1)C(=O)N(Cc1c(F)cc(-c3ccc(OC)c4nn(C)cc34)cc1F)C2([2H])[2H]
OPERATOR_SYMBOL: =
RECORDED_MEASUREMENT: 4.64
//
MOLECULE: [2H]C([2H])([2H])Oc1ccc(-c2cc(F)c(CN3C(=O)c4cccnc4C3([2H])[2H])c(F)c2)c2cn(C([2H])([2H])[2H])nc12
OPERATOR_SYMBOL: =
RECORDED_MEASUREMENT: 3.54
//
MOLECULE: [2H]C1([2H])c2ncccc2C(=O)N1Cc1ccc(-c2ccc(OCC3CCCO3)c3nn(C)cc23)cc1F (stereo not shown)
OPERATOR_SYMBOL: ≥
RECORDED_MEASUREMENT: 10

---

# TARGET_DESC: human mAChR M1 (Homo sapiens)
# EXPERIMENTAL_DETAILS: mAChR M1 cell-based functional assay (calcium mobilization), PAM mode: increase in the EC20 acetylcholine response
# Experimental: Chinese hamster ovary (CHO-K1) cells stably expressing rat (r)M1 were purchased from the American Type Culture Collection and cultured according to their indicated protocol. […] Calcium flux was measured using the Functional Drug Screening System (FDSS) 6000 (Hamamatsu Corporation, Tokyo, Japan) as an increase in the fluorescent static ratio. […] Agonist activity was analyzed as a concentration-dependent increase in calcium mobilization upon compound addition. […]

COMPOUND: [2H]C1([2H])c2ncccc2C(=O)N1Cc1c(F)cc(-c2cccc3nn(CC)cc23)cc1F
Emax [%]: 81
//
COMPOUND: [2H]C1([2H])c2ncccc2C(=O)N1Cc1ccc(-c2ccc(OCC3CCO3)c3nn(C)cc23)cc1F (stereo not shown)
Emax [%]: 73
//
COMPOUND: [2H]C1([2H])c2ncccc2C(=O)N1Cc1c(F)cc(-c2ccc(C(F)(F)F)c3nn(C)cc23)cc1C1CC1
Emax [%]: 84
//
COMPOUND: [2H]C1([2H])c2ncccc2C(=O)N1Cc1c(F)cc(-c2ccc(C)c3nn(C)cc23)cc1Cl
Emax [%]: 81
//
COMPOUND: [2H]C1([2H])c2ncccc2C(=O)N1Cc1c(F)cc(-c2ccc(OC3CN(C(C)C)C3)c3nn(C)cc23)cc1F
Emax [%]: 85
//
COMPOUND: [2H]C1([2H])c2ncccc2C(=O)N1Cc1c(F)cc(-c2cccc3nn(C([2H])([2H])[2H])cc23)cc1N1CCC1
Emax [%]: 77
//
COMPOUND: [2H]C1([2H])c2ncccc2C(=O)N1Cc1c(F)cc(-c2cc(F)c(Cl)c3c2cnn3C([2H])([2H])[2H])cc1F
Emax [%]: 20

---

# TARGET_DESC: human mAChR M1 (Homo sapiens, UniProt P11229)
# EXPERIMENTAL_DETAILS: mAChR M1 cell-based functional assay (calcium mobilization), PAM mode: increase in the EC20 acetylcholine response
Measured log10 EC50, listed per entry for reference.
PARAMETER_MEASURED: log10 EC50 (log10 of the value in µM)

CPD_SMILES: [2H]C1([2H])c2ncccc2C(=O)N1Cc1c(F)cc(-c2cccc3c2cnn3C(C)C)cc1F
log10 EC50: 0.26
//
CPD_SMILES: [2H]C1([2H])c2ncccc2C(=O)N1Cc1ccc(-c2ccc(O[C@@H](C)COC)c3nn(C)cc23)cc1F
log10 EC50: -0.19
//
CPD_SMILES: [2H]C1([2H])c2ncccc2C(=O)N1Cc1c(F)cc(-c2ccc(F)c3nn(C)cc23)cc1F
log10 EC50: -0.32
//
CPD_SMILES: [2H]C1([2H])c2ncccc2C(=O)N1Cc1c(F)cc(-c2ccc(OCC3CC3)c3nn(C)cc23)cc1F
log10 EC50: -0.08
//
CPD_SMILES: [2H]C1([2H])c2ncccc2C(=O)N1Cc1c(F)cc(-c2cc(Cl)c3nn(C)cc3c2)cc1F
log10 EC50: -1.06
//
CPD_SMILES: [2H]C1([2H])c2ncccc2C(=O)N1Cc1c(F)cc(-c2ccc(C)c3nn(C)cc23)cc1F
log10 EC50: -0.27
//
CPD_SMILES: [2H]C1([2H])c2ncccc2C(=O)N1Cc1c(F)cc(-c2ccc(F)c3nn(C)cc23)cc1OCC(C)C
log10 EC50: 0.11
//
CPD_SMILES: [2H]C1([2H])c2ncccc2C(=O)N1Cc1c(F)cc(-c2cccc3nn(C([2H])([2H])[2H])cc23)cc1C1CC1
log10 EC50: -0.92
//
CPD_SMILES: [2H]C([2H])([2H])Oc1cc(-c2cc(F)c(CN3C(=O)c4cccnc4C3([2H])[2H])c(F)c2)c2cnn(C([2H])([2H])[2H])c2c1
log10 EC50: 0.43
//
CPD_SMILES: [2H]C1([2H])c2ncccc2C(=O)N1Cc1c(F)cc(-c2ccc(OCc3ccccc3)c3nn(C)cc23)cc1F
log10 EC50: 0.25
//
CPD_SMILES: [2H]C1([2H])c2ncccc2C(=O)N1Cc1c(F)cc(-c2ccc(Cl)c3nn(C)cc23)cc1OCC(C)C
log10 EC50: 0.38
//
CPD_SMILES: [2H]C1([2H])c2ncccc2C(=O)N1Cc1c(F)cc(-c2cccc3nn(C([2H])([2H])[2H])cc23)cc1F
log10 EC50: -0.58
//
CPD_SMILES: [2H]C1([2H])c2ncccc2C(=O)N1Cc1c(Cl)cc(-c2cccc3nn(C([2H])([2H])[2H])cc23)cc1Cl
log10 EC50: -0.42
